Tested on: SNK-6 (IL-2 2.5 ng/mL);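 further: normalised to DMSO-only wells as negative and benzethonium chloride as positive control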
assay: percent inhibition of viability; higher = more inhibition
runParameters: 72 h; 10 nM
Field: percent inhibition of viability. Provide a value for each of the compounds that follow.
Express your answer in %, writing the number without its unit.

Look up and report percent inhibition of viability, with SNK-6 (IL-2 2.5 ng/mL) as system, for CCn1c(=O)c(-c2cc[nH]n2)cc2c(C)nc(N)nc21 [Voxtalisib] (max concentration tested 10000 nM)
-23.8

Look up and report percent inhibition of viability, with SNK-6 (IL-2 2.5 ng/mL) as system, for COc1cc(N2CCC(N3CCN(C)CC3)CC2)ccc1Nc1ncnc(Nc2ccccc2S(=O)(=O)C(C)C)n1 [ASP3026] (max concentration tested 10000 nM)
-8.98

Look up and report percent inhibition of viability, with SNK-6 (IL-2 2.5 ng/mL) as system, for CN(C)CCOc1ccc(/C(=C(/CCCl)c2ccccc2)c2ccccc2)cc1 [Toremifene] (max concentration tested 10000 nM)
30.5

Look up and report percent inhibition of viability, with SNK-6 (IL-2 2.5 ng/mL) as system, for C=C1C[C@@H]2[C@H](CC[C@]3(C)C(=O)CC[C@@H]23)[C@@]2(C)C=CC(=O)C=C12 [Exemestane] (max concentration tested 10000 nM)
3.81

Look up and report percent inhibition of viability, with SNK-6 (IL-2 2.5 ng/mL) as system, for CCn1cc(-c2ccnc3[nH]c(-c4cccc(CN(C)C)c4)cc23)c(-c2ccc(NC(=O)N(C)C)cc2)n1 (max concentration tested 1000 nM)
35

Look up and report percent inhibition of viability, with SNK-6 (IL-2 2.5 ng/mL) as system, for C=CC(=O)N1CCC[C@@H](n2nc(-c3ccc(Oc4ccccc4)cc3)c3c(N)ncnc32)C1 [Ibrutinib] (max concentration tested 1000 nM)
-7.4
